# Test system: T24 cell line
# Test name: Cytotoxicity MTS assay, T24 cell line;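 note: blank control wells received 0.025% DMSO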
# Type: cell-based
# Assay setup: T24 cell line, 50μM, second assay
Each entry below lists one item and its recorded OD490 Well 1 value.
Hey, just send me the number, nothing else.

CCOC(=O)c1c(C2NC(=O)NC(C)=C2C(=O)Nc2ccccc2OC)[nH]c(C(=O)OC)c1C (centres unmarked) [D1] = 1.5365
CCOC(=O)c1[nH]c(C2NC(=O)NC(C)=C2C(=O)Nc2ccccc2C)c(C(=O)OC)c1C (centres unmarked) = 1.4425
CCOc1ccccc1C1NC(=S)NC(C)=C1C(=O)Nc1ccc(Cl)cc1 (centres unmarked) = 1.3242
CCOC(=O)C1=C(C)NC(=S)NC1c1cccc(O)c1 (centres unmarked) [Monastrol, monastrol, reference compound] = 1.6325

Now examine the next entry.
Data request: Tell me reported OD490 Well 1 for CCOC(=O)c1c(C2NC(=O)NC(C)=C2C(=O)Nc2ccccc2C)[nH]c(C(=O)OC)c1C (centres unmarked) [D2] , tested with T24 cell line.
Data returned: 1.6524

###

# Tested on: Caco-2 cell line
# Test name: Cytotoxicity MTS assay, Caco-2 cell line
# Assay type: cell-based
# Assay setup: 50μM; third assay; Caco-2 cell line
Assay metric: OD490 Well 3
Could you keep your reply to the number by itself?

CCOc1ccccc1C1NC(=S)NC(C)=C1C(=O)Nc1ccc(Cl)cc1 (stereo not shown) = 0.4613
CCOC(=O)c1[nH]c(C2NC(=S)NC(C)=C2C(=O)OC)c(C(=O)OCC)c1C (stereo not shown) = 0.5988
CCOC(=O)c1c(C2NC(=O)NC(C)=C2C(=O)Nc2ccccc2)[nH]c(C(=O)OC)c1C (stereo not shown) = 0.4698
CCOC(=O)c1[nH]c(C2NC(=O)NC(C)=C2C(=O)Nc2ccccc2C)c(C(=O)OC)c1C (stereo not shown) = 0.3120
CCOC(=O)c1c(C2NC(=O)NC(C)=C2C(=O)Nc2ccccc2OC)[nH]c(C(=O)OC)c1C (stereo not shown) [D1] = 0.4988
COC(=O)c1[nH]c(C2NC(=S)NC(C)=C2C(=O)c2ccccc2)c(C(=O)OC)c1C (stereo not shown) = 0.4621

Data request: Tell me the measured OD490 Well 3 of CCOC(=O)c1[nH]c(C2NC(=O)NC(C)=C2C(=O)Nc2ccccc2OC)c(C(=O)OC)c1C (stereo not shown) , please.
Data returned: 0.7621

###

# Test system: Caco-2 cell line
# Test name: Cytotoxicity MTS assay, Caco-2 cell line
# Type: cell-based
# Assay setup: 10μM; second assay; Caco-2 cell line
# Description: The positive compounds (IC50 < 100 μM) obtained from the primary Eg5 motor protein ATPase assay were tested for antiproliferative activity in vitro against Caco-2 cell line, Hela cell line, L929 cell line and T24 cell line by performing MTS assay. Cells were introduced into 96-well plates at a density of 1000 cells per well. After 24 h incubation, the cells were exposed with compounds at final concentrations ranging from 0.5 to 100 µM for 24 h. […]
Let's look at some compounds and their measured OD490 Well 2.
Just the number.

See these solved cases before continuing.
CCOC(=O)c1c(C2NC(=O)NC(C)=C2C(=O)Nc2ccccc2OC)[nH]c(C(=O)OC)c1C (centres unmarked) [D1] = 0.5502
CCOc1ccccc1C1NC(=S)NC(C)=C1C(=O)Nc1ccc(Cl)cc1 (centres unmarked) = 0.5431
CCOC(=O)c1c(C2NC(=O)NC(C)=C2C(=O)Nc2ccccc2)[nH]c(C(=O)OC)c1C (centres unmarked) = 0.624

Data request: Using the record for CCOC(=O)c1[nH]c(C2NC(=O)NC(C)=C2C(=O)Nc2ccccc2C)c(C(=O)OC)c1C (centres unmarked) , report its OD490 Well 2.
Data returned: 0.6414

Data request: Lookup CCOC(=O)c1c(C2NC(=O)NC(C)=C2C(=O)Nc2ccccc2C)[nH]c(C(=O)OC)c1C (centres unmarked) [D2]
Data returned: 0.7395
